Values compiled from PubChem BioAssay AID1159580.

Entries and their measured normalized growth follow.
Assay: chemical genetic growth profiling, strain panel (AID 1159580);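 also: tested at 20 µM; growth read once vehicle control cultures reached saturation at 30 °C; 1 = growth at the plate median or of vehicle wells; lower values mean less growth of the strain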
Conditions: S. cerevisiae deletion strains, growth OD, locus YOR070C, strain gyp1, stronger effect = lower value
Hit rate of the full screen: of about 5,500 compounds, about 2,000 (36%) were called active. Roughly 18% stayed inconclusive and do not appear here. The list shows a part of the results.
Lab note: jot the number down without any unit.

Using the record for COC1=CC23CCCN2CCc2cc4c(cc2C3C1O)OCO4 (stereo not given) , report its normalized growth.
1.02

Using the record for "COc1cc([C@@H]2c3cc4c(cc3[C@H](O)[C@H]3COC(=O)[C@H]23)OCO4)cc(OC)c1OC" , report its normalized growth.
1.02

Using the record for C[C@H]1C(=O)CCC2[C@]3(C)CC[C@@]4(C)C5CC(C)(C)CC[C@]5(C)CC[C@]4(C)C3CC[C@@]21C (stereo not given in full) , report its normalized growth.
0.996

Using the record for "O=c1c(O)cccc2cc(O)c(O)c(O)c12" , report its normalized growth.
0.901

Using the record for "COc1cc(OC)c2c(OC)c(-c3ccc4c(c3)OCO4)c(=O)oc2c1" , report its normalized growth.
0.977
